# MEASUREMENT_TARGET: human KEAP1 (N-term, residues 321-609) (Homo sapiens, UniProt Q14145)
# Construct: human KEAP1 (N-term, residues 321-609)
# Sequence (Q14145 321-609): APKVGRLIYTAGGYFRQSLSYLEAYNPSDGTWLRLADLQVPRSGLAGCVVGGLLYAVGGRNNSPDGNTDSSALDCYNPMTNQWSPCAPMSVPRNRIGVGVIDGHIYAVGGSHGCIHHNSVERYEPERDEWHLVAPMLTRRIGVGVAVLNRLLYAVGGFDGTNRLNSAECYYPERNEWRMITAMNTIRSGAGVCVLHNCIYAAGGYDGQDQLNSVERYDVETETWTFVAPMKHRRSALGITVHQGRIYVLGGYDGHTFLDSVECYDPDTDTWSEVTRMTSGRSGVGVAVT
# TEST_DETAILS: KEAP1 Kelch Fluorescence Polarization (FP) Assay
# PROTOCOL_CONDITIONS: inhibition of Kelch domain-NRF2 interaction; 2 nM FITC-labelled NRF2 peptide, 25 nM KEAP1, 1 h room temperature; compounds below 10 nM cannot be differentiated
# Description: KEAP1 Kelch Fluorescence Polarization (FP) Assay Method Inhibition of the Kelch domain-NRF2 interaction was determined using a fluorescence polarization-based competition assay in a black 384-well microplate. […] After 1 h at room temperature, fluorescence polarization (excitation 470 nm/emission 530 nm) was measured using an Envision plate reader. IC50 values were determined by fitting the data to a four parameter logistic fit using XLfit or XE Runner within ActivityBase. […]
pIC50: −log10 of the molar value.
ENDPOINT: pIC50

The examples below pair each entry with its known result.
compound=CNC(=O)CCC(=O)N1CCc2cccc(O[C@H]3CCN(C(=O)c4cncs4)C3)c2[C@H]1CN1C(=O)c2ccccc2C1=O endpoint=pIC50 quantitative_result=6.10
compound=CNC(=O)[C@@]1(C)CCCC[C@H]1C(=O)N1CCc2c(Cl)ccc(OCc3nnn(C)c3C3CC3)c2[C@H]1CN1CCCC1=O endpoint=pIC50 quantitative_result=8.13

(P) CNC(=O)[C@@]1(C)CCCC[C@H]1C(=O)N1CCc2c(Cl)ccc(OCc3nnn(C)c3C(F)(F)F)c2[C@H]1CN1CCCC1=O
(Q) CNC(=O)[C@@]1(C)CCCC[C@H]1C(=O)N1CCc2c(Cl)ccc(OCc3cn(C)nn3)c2[C@H]1CN1CCCC1=O
(R) CNC(=O)[C@@]1(C)CCC[C@H]1C(=O)N1CCc2c(Cl)ccc(OCc3nnn(C)c3C(F)F)c2[C@H]1CN1CCC(C)C1=O (single isomer, unassigned)
(S) CNC(=O)[C@H]1CCCC[C@H]1C(=O)N1CCc2cccc(OCCNC(=O)c3noc(C)c3C)c2[C@H]1CN1C(=O)c2ccccc2C1=O
# input Ordering: ascending pIC50. Answer format: the labels, in the requested order.
# output Q, S, R, P
